# tgt: DAPK2 (h) (Homo sapiens)
# Construct: purchased Millipore
# Sequence (Q9UIK4 whole entry): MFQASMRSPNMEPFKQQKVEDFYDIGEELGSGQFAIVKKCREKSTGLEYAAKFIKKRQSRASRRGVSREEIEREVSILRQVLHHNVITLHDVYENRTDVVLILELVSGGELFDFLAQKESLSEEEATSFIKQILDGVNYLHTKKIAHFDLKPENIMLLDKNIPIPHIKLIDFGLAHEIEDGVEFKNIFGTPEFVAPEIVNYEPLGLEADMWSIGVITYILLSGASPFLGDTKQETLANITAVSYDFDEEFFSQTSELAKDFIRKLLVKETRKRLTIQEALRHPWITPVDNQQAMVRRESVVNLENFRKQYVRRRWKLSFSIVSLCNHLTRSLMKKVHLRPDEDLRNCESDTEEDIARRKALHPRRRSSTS
# procedure text: Kinase Profiling Assay
# Format: biochemical
# assay context: 100 μM
In this section, each of the sequences is paired with its reported % activity.
I'd appreciate it if you included the unit after the number.

QUERY: Consider the sequence shown here: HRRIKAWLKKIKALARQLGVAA (Mammalian) [MMI-0500] What is its recorded % activity?
RESULT: 3%

QUERY: # % activity lookup, item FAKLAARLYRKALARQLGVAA [MMI-0300]
RESULT: 32%

QUERY: Quick one: % activity for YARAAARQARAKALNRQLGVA (Mammalian) [MMI-0200] ?
RESULT: 92%

Shifting focus to the sequence that follows.
QUERY: What value of % activity has been recorded for this entry: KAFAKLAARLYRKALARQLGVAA [MMI-0400]
RESULT: 16%
